- Tested on: DU-145 prostate
- test: NCI-60 one-dose screen, 48 h (100 = growth as untreated, 0 = no growth, -100 = all killed)
- measurement conditions: 10 µM unless noted
This is part of a sample that, as a whole, favours compounds with a hit. Of some 83,000 tested, about 20% had one in any assay.
measurement kind: growth (%)
Give just the number in %; leave the unit off.

[[record]]
molecule = "O=C(COc1ccccc1)N1N=C(c2ccc(Cl)cc2)CC1c1c[nH]c2ccccc12 (stereo not given)"
system = "DU-145 prostate"
measured = 92

[[record]]
molecule = "O=C(O)c1ccc(-n2c(=O)c3ccccc3c3ccccc3c2=O)cc1"
system = "DU-145 prostate"
measured = 113

[[record]]
molecule = "CCC(C)NCC(=O)O (stereo not given)"
system = "DU-145 prostate"
measured = 115

[[record]]
molecule = "NC(=S)NN=C1CCCCC1"
system = "DU-145 prostate"
measured = 95.1


Let us examine a further case.
Indicate its recorded growth; the molecule in question is CCN(CC)c1cc(/C=C/c2ccc(OC)c(OC)c2)nc2cc(F)c(F)cc12
71.8
